Catalogue of apparent KD of K4 kissing-loop reporter readings, one per entry.
# Tested on: K4 kissing-loop RNA reporter;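 also: bound reporter read as fluorescence of individual clusters on recovered sequencing chips by microscopy, with normalized cluster intensities fitted with a binding model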
# procedure_details: apparent KD of K4 kissing-loop reporter; higher = weaker reporter binding
# assay_context: Eterna round: R107; input ligand: theophylline 20 uM
endpoint_name: apparent KD of K4 kissing-loop reporter

1. CUUAGGAGUGGUGUUGAUUAGGGAGCGGAAGGAGCGCCAAUGAUGGCAGGUAGGUCGCCGGAAUGUAGUGAUGUUGCAUAGAGGG [ExArgA.S]; 236 nM
2. GUAUCGCUAGGAGGAUAUUUCAAAUAAUAAAUAAAUGGAUAUUCGGAGUGAUGUUCCGAUUUACGGAAAGAAGGCCUAGUGAUAC [FMN B 2]; 137 nM
3. AGGUUUUGAUCAGGAUAUGCAUUGACGAUGAGAAUAUAGUGAUGUUAUAUACUACGAAUUAGUAAAGUAGAAGGGAUUGAGGUUU [SSFMNB.aB]; 898 nM

###

# System: MS2 coat protein
# procedure_details: apparent KD of MS2 coat protein; designed switch direction (-1 OFF switch, 1 ON switch): -1; higher = weaker reporter binding
# assay_context: input ligand: none
The threshold is inclusive: apparent KD of MS2 coat protein of exactly 50 nM counts as YES; values below receive NO.

1) GGGUAGUGAGGAUAUACAUGAGGAUCACCCAUGUUUGCGACACUGGAGGCGUCUCUAUGUAGAAGGCGCGGCCG [EX3 B.16] (Eterna round: R97, puzzle: Exclusion 3); NO
2) AAAUGUGCGAGAGGAUAUCGUGUACAAAGUACACGAGAAGGCUUCACAUGAGGAUCACCCAUGUACCGAGGUGAAACACCUUGA [Omei Exc(NG)1 Bv4] (Eterna round: R96, puzzle: Exclusion NG 1); YES
3) UAUUAGCAAGCGAGAUCCCACAUGAGGAUCACCCAUGUAACAUCCAGAAUUACUGGGUGCAAAGCUCGUCUUAUAUA [Winner reversed engineered 3] (Eterna round: R97, puzzle: Sensor, turn-off variant 1); YES
4) AGUUGGCGAGGAUAUACAUGAGGAUCACCCAUGUAUGAGAUAAAAGUGAGGUAAAUAUGUAGAAGGCGCUGACA [JR_Ex3_Sub078] (Eterna round: R97, puzzle: Exclusion 3); YES
5) ACAUGAGGAUCACCCAUGUCCGGCUGGUCCGUCUCGGCUGUCGAGGAUAUAGCUUGGUGUCCGCGCUAGAAGGUGGGAGCCGGU [Aenatbe mod 70] (Eterna round: R96, puzzle: Exclusion NG 3); YES
6) UGGCUACAUGAGGAUCACCCAUGUCAGGAUAUGCCGUUGAAUUGACAUCGACGUACGGGUAGAAGGGACUGCGU [1st #10] (Eterna round: R97, puzzle: Exclusion 1); NO
7) CUGUACUGAGGAUAUACAUGAGGAUCACCCAUGUGUCCUGGCUAGGAAACUAGCAAAGGUAGAAGGCAGUACAG [Mat - Exclusion 3 - Eli Mod - D54] (Eterna round: R97, puzzle: Exclusion 3); NO
8) CCAUGGGAGCGAGGAUAUAGACCAUGGGAAGAUCUAGAAGGCGCUGACAUGAGGAUCACCCAUGUGUUCAUGAGGAGGUGGACA (Eterna round: R96, puzzle: Exclusion NG 1); NO
9) GAAUAGCAAGCGAGAUCCCACAUGAGGAUCACCCAUGUGCUCGUCUUAUAAAGUACUGUGACGAUAGUCACGGUACA [Mat - Sensor, turn-off var - Eli Mod - D13] (Eterna round: R97, puzzle: Sensor, turn-off variant 1); NO
